Test system: chlorpyrifos hydrolase (CPH)
Construct: native enzyme purified from mycelial cell extract; N-terminal MEPDGELSALTQGANS; gene not cloned
Assay type: biochemical, Cladosporium cladosporioides
Listed molecules paired with reported Km
Express the result in µM but write the number alone.

Km for COP(=S)(OC)Oc1ccc([N+](=O)[O-])cc1 [Methyl parathion] ?
12.5

Km for CCOC(=O)CC(SP(=S)(OC)OC)C(=O)OCC (centres unmarked) [Malathion] ?
44.4

Km for COP(N)(=O)SC (centres unmarked) [Methamidophos] ?
31.8

Km for CCOP(=S)(OCC)Oc1nc(Cl)c(Cl)cc1Cl [Chlorpyrifos] ?
6.8

***
Km for CCOP(=S)(OCC)Oc1ccc([N+](=O)[O-])cc1 [Parathion] ?
9.8
